Target: T1, cynoPD-1 His (AcroBiosystems PD1-C5223) (cynomolgus monkey, UniProt B0LAJ3 25-170)
T1 construct: also called cPD-1; cynomolgus PD-1 His-tagged
T1 sequence (B0LAJ3 entry or part of it limits assumed): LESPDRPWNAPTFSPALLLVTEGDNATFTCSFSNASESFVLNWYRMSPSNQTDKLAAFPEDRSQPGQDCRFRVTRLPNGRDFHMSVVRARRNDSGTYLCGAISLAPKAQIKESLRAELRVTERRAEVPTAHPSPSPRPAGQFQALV
Test: BLI (legend: SPR), Ab on sensor
Entries and their koff
recordedMetric: koff

- binder: "56H02 (antibody, V domains shown, used with CH1,2,3 and corresponding CL) VH: QVQLVQSGAEVKKPGASVKVSCKASGYTFTSYFMHWVRQAPGQGLEWMGLINPDGGNTDYAQKFQGRVTMTRDTSTSTVYMELSSLRSEDTAVYYCARDGNYYDSSGYYYPDAFDIWGQGTMVTVSS VL: SSELTQDPAVSVALGQTVRITCQGDSLRRFYASWYQQKPGQAPVIVIYGKDNRPSGTPDRFSGSTSGNTASLTITGAQAEDEADYYCNSRDSSGTHVVFGGGTKLTVL"
  measurement: "3.67e-05 s⁻¹"
- binder: "40B20 (antibody, V domains shown, used with CH1,2,3 and corresponding CL) VH: EVQLVESGGGLVQPGGSLRLSCAASGFTFSSYSMNWVRQAPGKGLQWVSYITSSSNTMYYADSVKGRFTISRDNAKNSLYLQMNSLRDEDTAVYYCASIVGAPFDYWGQGTLVTVSS VL: EIVMTQSPATLSVSPGERATLSCRASQSVSSSLAWYQQKPGQAPRLLIYGASTRATGIPARFSGSGSGTEFTLTISSLQSEDFAAYYCQQYNNWPFTFGPGTKVDIK"
  measurement: "0.000505 s⁻¹"
- binder: "20H02 (antibody, V domains shown, used with CH1,2,3 and corresponding CL) VH: EVLLVESGGGLVQPGGSLRLSCAASGFTFSSYSMNWVRQAPGKGLEWVSFISSSSPTLYYADSVKGRFTISRDNAKNSLYLQMNSLRDEDTAVYYCARQGLTPFDYWGQGTLVTVSS VL: EIVMTQSPATLSVFPGERATLSCRASQSVSSYLAWYQQKPGQAPRLLIYGASTRATGIPARVSGSGSGTEFILTISSLQSEDFAVYYCQQYNNWPYTFGQGTKLEIK"
  measurement: "0.000463 s⁻¹"
- binder: "39F23 (antibody, V domains shown, used with CH1,2,3 and corresponding CL) VH: QVQLVESGGGVGQPGRSLRLSCAASGFTFSNYGMHWVRQAPGKGLEWVAVIWYDGSKKYYADSVKGRFTISRDNSKNTLYLQMNSLRVEDTAVYYCVGNSGHWGQGTLVTVSS VL: DIVMTQTPLSLPVTPGEPASISCRSSQSLLDSDDGNTYLDWYLQKPGQSPQLLIYTLSYRASGVPDRFSGSGSGTDFTLKISRVEAEDVGVYYCMQCIEFPHTFGGGTKVEIK"
  measurement: "0.000294 s⁻¹"
